The measurements presented in this section are drawn from patent US9718774B2.

molecular target: human recombinant P2X7 receptor (Homo sapiens, UniProt Q99572); construct: expressed in transfected cells; assay: YO-PRO assay: P2X7 receptor antagonistic activity in HEK cells stably expressing P2X7; type: cell-based; details: antagonistic activity with respect to the P2X7 receptor, read-out: IC50
Sequence (Q99572 whole entry): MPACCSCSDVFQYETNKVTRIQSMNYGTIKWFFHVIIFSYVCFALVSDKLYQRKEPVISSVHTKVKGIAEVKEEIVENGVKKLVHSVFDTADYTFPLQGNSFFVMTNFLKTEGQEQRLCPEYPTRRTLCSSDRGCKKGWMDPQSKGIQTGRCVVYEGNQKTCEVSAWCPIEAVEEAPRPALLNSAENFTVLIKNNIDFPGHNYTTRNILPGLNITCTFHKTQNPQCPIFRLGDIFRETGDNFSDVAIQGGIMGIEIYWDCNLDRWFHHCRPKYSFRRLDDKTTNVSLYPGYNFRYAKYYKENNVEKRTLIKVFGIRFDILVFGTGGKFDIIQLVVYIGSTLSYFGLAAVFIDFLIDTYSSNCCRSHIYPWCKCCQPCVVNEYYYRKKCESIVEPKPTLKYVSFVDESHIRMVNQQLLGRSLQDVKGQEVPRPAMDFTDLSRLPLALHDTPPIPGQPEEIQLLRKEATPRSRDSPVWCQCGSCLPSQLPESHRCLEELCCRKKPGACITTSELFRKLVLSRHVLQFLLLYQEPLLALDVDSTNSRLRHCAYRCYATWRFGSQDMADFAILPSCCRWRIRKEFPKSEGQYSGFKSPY
Where a name gives a salt, the structure may show the parent alone.
Readings of IC50 for the listed compounds
Give just the number in µM; leave the unit off.

As a guide, the following entries are already answered.
>>> recorded_value("CN1CCC(C(CNC(=O)c2ccc3[nH]ccc3c2Cl)c2cccnc2)CC1 (racemic) [Example 21, formic acid salt]")
0.584
>>> recorded_value("COc1cc(C(=O)NCC(c2cnc(C)nc2)N2CCOCC2)c(Cl)c2cc[nH]c12 (single isomer, unassigned) [Example 115]")
0.0082
>>> recorded_value("O=C(NCC(c1cccc(F)c1)N1CCOCC1)c1ccc2[nH]ccc2c1Cl (racemic)")
0.032

Incoming: For the compound shown here, Cc1ncc(C(CNC(=O)c2cc(C)c3[nH]ccc3c2Cl)N2CCOCC2)cn1 (single isomer, unassigned) [Example 97] , give the reported IC50.
Outgoing: 0.01

Incoming: For the compound shown here, COc1cc(C(=O)NCC(c2cnc(C)nc2)N2CCOCC2)c(C)c2cc[nH]c12 (racemic) , give the reported IC50.
Outgoing: 0.025

Incoming: For the compound shown here, Cc1ncc([C@H](CNC(=O)c2ccc3[nH]ccc3c2Cl)N2CCCCC2C)cn1 (mixture of isomers) , give the reported IC50.
Outgoing: 0.087

Incoming: For the compound shown here, Cc1ncc(C(CNC(=O)c2cc(C)c3[nH]ccc3c2Cl)N2CCOCC2)cn1 (single isomer, unassigned) [Example 96] , give the reported IC50.
Outgoing: 0.0096

Incoming: For the compound shown here, O=C(NCC(c1ccc(Cl)nc1)N1CCC(F)(F)CC1)c1ccc2[nH]ccc2c1Cl (racemic) , give the reported IC50.
Outgoing: 0.0043
